Body weight (g) Post-dose overview
tested on: K562 xenografts; assay: K562 xenografts in nude mice; assay type: in vivo; conditions: K562 xenograft nude mice, 1 mg/kg

COMPOUND	UNIT NAME	Body weight (g) Post-dose
CCC1(O)CC2CN(CCc3c([nH]c4ccccc34)C(C(=O)OC)(c3cc4c(cc3OC)N(C)C3C(O)(C(=O)NNC(=O)C5CCCN5C(=O)CNC(=O)OCc5ccccc5)C(O)C5(CC)C=CCN6CCC43C65)C2)C1 (stereo not shown)	g	23.1
CCC1=CC2CN(C1)Cc1c([nH]c3ccccc13)C(C(=O)OC)(c1cc3c(cc1OC)N(C)C1C(O)(C(=O)NNC(=O)C4CCCN4C(=O)CNC(=O)OCc4ccccc4)C(O)C4(CC)C=CCN5CCC31C54)C2 (stereo not shown)	g	23.4
CC[C@]1(O)C[C@@H]2CN(CCc3c([nH]c4ccccc34)[C@@](C(=O)OC)(c3cc4c(cc3OC)N[C@H]3[C@@](O)(C(=O)NN)[C@H](O)[C@]5(CC)C=CCN6CC[C@]43[C@@H]65)C2)C1 [JJ-CCXJ, hydrazinolyzed vincristine]	g	17.1
CC[C@]1(O)C[C@@H]2CN(CCc3c([nH]c4ccccc34)[C@@](C(=O)OC)(c3cc4c(cc3OC)N(C)[C@H]3[C@@](O)(C(=O)OC)[C@H](OC(C)=O)[C@]5(CC)C=CCN6CC[C@]43[C@@H]65)C2)C1 [Vinblastine, reference compound]	g	17.4
